molecular target: Human CB1 (Homo sapiens (Human)); assay: Calcium mobilization assay (antagonist mode vs CP55,940); format: cell-based; settings: CHO-RD-HGA16 cells stably expressing human CB1; against EC50 concentration of CP55,940; mean ± SEM, at least three experiments
Sequence (P21554 whole entry): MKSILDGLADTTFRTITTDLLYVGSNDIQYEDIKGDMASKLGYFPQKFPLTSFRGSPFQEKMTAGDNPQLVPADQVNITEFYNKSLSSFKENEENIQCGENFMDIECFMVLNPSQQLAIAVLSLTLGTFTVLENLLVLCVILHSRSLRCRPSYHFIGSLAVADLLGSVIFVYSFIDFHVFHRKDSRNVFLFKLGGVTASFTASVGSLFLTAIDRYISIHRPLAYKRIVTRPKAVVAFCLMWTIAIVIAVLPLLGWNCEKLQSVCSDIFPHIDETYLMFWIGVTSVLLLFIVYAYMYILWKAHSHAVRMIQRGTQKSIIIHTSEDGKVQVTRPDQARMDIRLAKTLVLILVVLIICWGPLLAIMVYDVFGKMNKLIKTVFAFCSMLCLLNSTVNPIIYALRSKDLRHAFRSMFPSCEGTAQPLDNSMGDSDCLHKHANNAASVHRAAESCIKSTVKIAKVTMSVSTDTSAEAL
pIC50: −log10 of the molar value.

[
  {
    "Smiles": "O=c1c(NCCc2ccncc2)c(Nc2ccc(Cl)cc2)c1=O",
    "Subject of test": "Human CB1 (Homo sapiens (Human))",
    "pIC50": "< 5.00"
  },
  {
    "Smiles": "O=c1c(NCCN2CCCCC2)c(Nc2ccc(Cl)cc2)c1=O",
    "Subject of test": "Human CB1 (Homo sapiens (Human))",
    "pIC50": "< 5.00"
  },
  {
    "Smiles": "O=c1c(NCCc2ccc(N3CCCC3)cc2)c(Nc2ccc(Cl)cc2)c1=O",
    "Subject of test": "Human CB1 (Homo sapiens (Human))",
    "pIC50": "< 5.00"
  },
  {
    "Smiles": "O=c1c(NCCc2ccc(N3CCCCC3)cc2)c(Nc2ccc(Cl)cc2)c1=O",
    "Subject of test": "Human CB1 (Homo sapiens (Human))",
    "pIC50": "< 5.00"
  },
  {
    "Smiles": "O=c1c(NCCc2ccc(N3CCC3)cc2)c(Nc2ccc(Cl)cc2)c1=O",
    "Subject of test": "Human CB1 (Homo sapiens (Human))",
    "pIC50": "< 5.00"
  }
]
